Data provenance is ChEMBL document CHEMBL1629527.

# MIC50 annotations
# System: Candida dubliniensis
# Procedure summary: Antifungal activity against Candida dubliniensis after 24 to 72 hrs by broth microdilution method
# Format: functional
Record the value in µg/mL, omitting the unit from your answer.

Answered cases to consult:
>>> obs_value("CCCCCc1cc[n+](CCCCCCCCCCCC[n+]2ccc(CCCCC)c(C)c2)cc1C.[Cl-].[Cl-]")
0.79
>>> obs_value("CC[C@@H]([C@H](C)O)n1ncn(-c2ccc(N3CCN(c4ccc(OC[C@@H]5CO[C@@](Cn6cncn6)(c6ccc(F)cc6F)C5)cc4)CC3)cc2)c1=O [POSACONAZOLE]")
0.008
>>> obs_value("OC(Cn1cncn1)(Cn1cncn1)c1ccc(F)cc1F [FLUCONAZOLE]")
0.25
>>> obs_value("CCCCCCc1cc[n+](CCCCCCCCCCCC[n+]2ccc(CCCCCC)cc2)cc1.[Cl-].[Cl-]")
0.79
>>> obs_value("C[C@@H]1[C@H](O)[C@@H](C)/C=C/C=C/C=C/C=C/C=C/C=C/C=C/[C@H](O[C@@H]2O[C@H](C)[C@@H](O)[C@H](N)[C@@H]2O)C[C@@H]2O[C@](O)(C[C@@H](O)C[C@@H](O)[C@H](O)CC[C@@H](O)C[C@@H](O)CC(=O)O[C@H]1C)C[C@H](O)[C@H]2C(=O)O [AMPHOTERICIN B]")
0.125

[ask] Query for Candida dubliniensis: what MIC50 does the record show for CC[C@H](C)C[C@H](C)CCCCCCCCC(=O)N[C@H]1C[C@@H](O)[C@@H](NCCN)NC(=O)[C@@H]2[C@@H](O)CCN2C(=O)[C@H]([C@H](O)CCN)NC(=O)[C@H]([C@H](O)[C@@H](O)c2ccc(O)cc2)NC(=O)[C@@H]2C[C@@H](O)CN2C(=O)[C@H]([C@@H](C)O)NC1=O [CASPOFUNGIN] ?
[reply] 0.06

----------
# System: Aspergillus fumigatus
# Procedure summary: Antifungal activity against Aspergillus fumigatus ATCC 204305 after 24 to 72 hrs by broth microdilution method
# Assay type: functional
Value kind: MIC

Answered cases to consult:
>>> obs_value("CC(C)CCc1cc[n+](CCCCCCCCCCCC[n+]2ccc(CCC(C)C)cc2)cc1.[Cl-].[Cl-]")
"> 47.3 µg/mL"
>>> obs_value("CCCCCc1cccc[n+]1CCCCCCCCCCCC[n+]1ccccc1CCCCC.[Cl-].[Cl-]")
"> 47.3 µg/mL"
>>> obs_value("C=CCCCc1cc[n+](CCCCCCCCCCCC[n+]2ccc(CCCC=C)cc2)cc1.[Cl-].[Cl-]")
"> 47.3 µg/mL"

Consider now this further compound.
[ask] Give the measured MIC of CC(C)(C)CCc1cc[n+](CCCCCCCCCCCC[n+]2ccc(CCC(C)(C)C)cc2)cc1.[Cl-].[Cl-] .
[reply] > 50.7 µg/mL

----------
# MIC annotations
# Test system: Cunninghamella bertholletiae
# Procedure summary: Antifungal activity against Cunninghamella bertholletiae 99-12187 after 24 to 72 hrs by broth microdilution method
# Format: functional

Answered cases to consult:
>>> obs_value("CC(C)(C)CCc1cc[n+](CCCCCCCCCCCC[n+]2ccc(CCC(C)(C)C)cc2)cc1.[Cl-].[Cl-]")
"> 50.7 µg/mL"
>>> obs_value("C=CCCCc1cc[n+](CCCCCCCCCCCC[n+]2ccc(CCCC=C)cc2)cc1.[Cl-].[Cl-]")
"> 47.3 µg/mL"

[ask] Give the measured MIC of CC(C)CCc1cc[n+](CCCCCCCCCCCC[n+]2ccc(CCC(C)C)cc2)cc1.[Cl-].[Cl-] .
[reply] > 47.3 µg/mL
